- System: Escherichia coli TOP10;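 further: peptides expressed intracellularly from a pBAD plasmid library in pooled LB shake-flask culture, induced with 0.3% L-arabinose, DNA abundance read by NGS, three biological replicates, DESeq2 with apeglm shrinkage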
- method-description: shrunken log2 fold change of peptide-encoding DNA abundance (4.5 h post-induction vs induction); higher = less antimicrobial activity (less host growth inhibition)
- condition-info: time post-induction: 4.5 h; library: site-saturation at positions 5, 18, 19, 20
Is shrunken log2 fold change at least -0.03? Then 1. If not, -1.

chain	tested-system	discrete-label
RRIRARPPRLPRPRPRPWMCPRP	Escherichia coli TOP10	-1
RRIRARPPRLPRPRPRPDASPRP	Escherichia coli TOP10	1
RRIRRRPPRLPRPRPRPQPIPRP	Escherichia coli TOP10	1
RRIRTRPPRLPRPRPRPMTLPRP	Escherichia coli TOP10	1
RRIRHRPPRLPRPRPRPNQCPRP	Escherichia coli TOP10	-1
RRIRLRPPRLPRPRPRPEYGPRP	Escherichia coli TOP10	1
RRIRIRPPRLPRPRPRPHEKPRP	Escherichia coli TOP10	-1
RRIRYRPPRLPRPRPRPRHAPRP	Escherichia coli TOP10	-1
RRIRERPPRLPRPRPRPVKGPRP	Escherichia coli TOP10	1
RRIRDRPPRLPRPRPRPALMPRP	Escherichia coli TOP10	1
RRIRARPPRLPRPRPRPAAGPRP	Escherichia coli TOP10	1
RRIRLRPPRLPRPRPRPRNTPRP	Escherichia coli TOP10	-1
RRIRGRPPRLPRPRPRPHMNPRP	Escherichia coli TOP10	1
RRIRIRPPRLPRPRPRPLCIPRP	Escherichia coli TOP10	-1
RRIRHRPPRLPRPRPRPCRSPRP	Escherichia coli TOP10	-1
RRIRGRPPRLPRPRPRPCGKPRP	Escherichia coli TOP10	1
